test system: HL-60; test: NCI tumour cell line growth inhibition, 48 h
The source made the active and inactive calls. Rule as the data show it: active = GI50 up to about 1.1 µM and inactive = higher.
Outcomes you can answer with include only these: active, inactive

Use the examples below as a reference point.
NC(=S)N/N=C/c1cn(CCCl)c2ccccc12 : inactive
NC(=O)C(=O)N/N=C1\C(=O)N(c2ccc(Cl)cc2Cl)C(=O)C1C(=O)Nc1ccc(Cl)cc1Cl (stereo not given) : inactive
Oc1ccc(-c2cc(-c3cc(-c4ccc(O)cc4)no3)on2)cc1 : inactive

Prompt line: Identify the outcome logged in this assay for the molecule shown: `O=C(c1ccco1)N(C(=O)N1CCCCC1)c1ccccc1`
Response line: inactive

Prompt line: Any idea what this test logged for `COc1ccc2c(c1OC)OC[C@@H](C1=CC(=O)C=C(O)C1=O)C2` ?
Response line: active

Prompt line: Would you mind telling me which call this test gave COc1ccc(C2CC(=O)CC(c3ccc(OC)cc3)C23C(=O)NC(=O)NC3=O)cc1 (stereo not given) ?
Response line: inactive

Prompt line: Given COc1ccc([C@@H]2OC(=O)C3C2C(=O)O[C@H]3c2ccc(OC)cc2)cc1 (stereo not given in full) , state the outcome it received in this test.
Response line: inactive

Prompt line: Status in this test for N#CC(c1ccccc1)N(CCOCCOCCN(C(=O)c1ccccc1)C(C#N)c1ccccc1)C(=O)c1ccccc1 (stereo not given) ?
Response line: inactive

Prompt line: State the result this test recorded for `Cc1ccc(CNNC(=O)c2cc[n+]([BH2-]C#N)cc2)cc1` .
Response line: inactive

Prompt line: Test call, this molecule: C=C(C)C1CC=C(C)C2(C1)OCC(C)(C)C(C)O2 (stereo not given)
Response line: inactive
